Structures can show the parent of a compound that is named as a salt.
Quick note: these are IC50 numbers for system: HER4 (Homo sapiens (Human))
Sequence (Q15303 26-1308): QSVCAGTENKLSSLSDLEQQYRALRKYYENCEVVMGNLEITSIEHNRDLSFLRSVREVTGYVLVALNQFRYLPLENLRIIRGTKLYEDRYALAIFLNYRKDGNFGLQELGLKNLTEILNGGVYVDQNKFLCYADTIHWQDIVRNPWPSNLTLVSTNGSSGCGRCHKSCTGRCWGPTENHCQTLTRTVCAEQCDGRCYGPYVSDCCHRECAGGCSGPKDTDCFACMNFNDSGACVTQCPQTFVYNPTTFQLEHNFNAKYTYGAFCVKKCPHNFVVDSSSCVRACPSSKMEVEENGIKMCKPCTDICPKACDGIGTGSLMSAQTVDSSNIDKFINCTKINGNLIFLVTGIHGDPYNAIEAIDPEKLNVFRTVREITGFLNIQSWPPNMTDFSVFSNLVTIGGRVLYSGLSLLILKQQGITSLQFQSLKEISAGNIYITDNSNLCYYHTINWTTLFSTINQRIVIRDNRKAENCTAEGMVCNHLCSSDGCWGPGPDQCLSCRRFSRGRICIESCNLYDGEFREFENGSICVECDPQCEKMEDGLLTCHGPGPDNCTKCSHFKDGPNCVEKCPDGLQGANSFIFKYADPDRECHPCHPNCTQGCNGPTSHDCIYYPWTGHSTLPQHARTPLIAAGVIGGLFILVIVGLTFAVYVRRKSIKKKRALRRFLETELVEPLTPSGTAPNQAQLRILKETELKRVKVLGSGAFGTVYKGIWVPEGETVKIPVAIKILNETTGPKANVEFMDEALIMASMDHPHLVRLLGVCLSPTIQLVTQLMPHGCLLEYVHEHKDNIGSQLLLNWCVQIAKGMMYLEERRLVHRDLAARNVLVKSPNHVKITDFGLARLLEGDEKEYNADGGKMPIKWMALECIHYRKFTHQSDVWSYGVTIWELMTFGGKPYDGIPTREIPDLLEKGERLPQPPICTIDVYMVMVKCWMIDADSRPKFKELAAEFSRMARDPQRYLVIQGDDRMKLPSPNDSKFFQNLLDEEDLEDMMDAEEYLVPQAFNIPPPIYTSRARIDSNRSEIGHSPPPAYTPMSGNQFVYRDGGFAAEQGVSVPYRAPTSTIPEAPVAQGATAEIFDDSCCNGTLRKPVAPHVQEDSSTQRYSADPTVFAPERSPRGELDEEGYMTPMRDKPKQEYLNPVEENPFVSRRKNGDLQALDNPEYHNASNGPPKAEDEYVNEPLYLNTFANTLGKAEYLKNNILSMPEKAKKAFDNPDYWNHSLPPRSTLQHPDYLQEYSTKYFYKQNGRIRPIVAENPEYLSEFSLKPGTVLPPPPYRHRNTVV
State the answer as a number, implicitly in nM.

Prompt: Give the reported IC50 for this compound. C=CC(=O)Nc1cc2c(Nc3ccc(F)c(Cl)c3)ncnc2cc1OCC[C@@H]1[C@H]2CN(C)C[C@@H]12 [Compound 8]
Completion: 3.4

Prompt: Give the reported IC50 for this compound. C=CC(=O)Nc1cc2c(Nc3ccc(F)c(Cl)c3)ncnc2cc1OCC1COC2(CCN(C)CC2)C1 (centres unmarked) [Compound 6]
Completion: 1.4

Prompt: Give the reported IC50 for this compound. C=CC(=O)Nc1cc2c(Nc3ccc(F)c(Cl)c3)ncnc2cc1OCC1CCC2(CCN(C)CC2)O1 (centres unmarked) [Compound 7]
Completion: 1.7

Prompt: Give the reported IC50 for this compound. C=CC(=O)Nc1cc2c(Nc3ccc(F)c(Cl)c3)ncnc2cc1OCCC1C2CCC1CN(C)C2 (centres unmarked) [Compound 11]
Completion: 8.3

Prompt: Give the reported IC50 for this compound. C=CC(=O)Nc1cc2c(Nc3ccc(F)c(Cl)c3)ncnc2cc1OCCC1CC2(CCN(C)CC2)C1 [Compound 19 hydrochloride]
Completion: 3.7

* * *

Quick note: these are IC50 numbers for system: HER2 (Homo sapiens (Human), UniProt P04626)
Sequence (P04626 23-1255): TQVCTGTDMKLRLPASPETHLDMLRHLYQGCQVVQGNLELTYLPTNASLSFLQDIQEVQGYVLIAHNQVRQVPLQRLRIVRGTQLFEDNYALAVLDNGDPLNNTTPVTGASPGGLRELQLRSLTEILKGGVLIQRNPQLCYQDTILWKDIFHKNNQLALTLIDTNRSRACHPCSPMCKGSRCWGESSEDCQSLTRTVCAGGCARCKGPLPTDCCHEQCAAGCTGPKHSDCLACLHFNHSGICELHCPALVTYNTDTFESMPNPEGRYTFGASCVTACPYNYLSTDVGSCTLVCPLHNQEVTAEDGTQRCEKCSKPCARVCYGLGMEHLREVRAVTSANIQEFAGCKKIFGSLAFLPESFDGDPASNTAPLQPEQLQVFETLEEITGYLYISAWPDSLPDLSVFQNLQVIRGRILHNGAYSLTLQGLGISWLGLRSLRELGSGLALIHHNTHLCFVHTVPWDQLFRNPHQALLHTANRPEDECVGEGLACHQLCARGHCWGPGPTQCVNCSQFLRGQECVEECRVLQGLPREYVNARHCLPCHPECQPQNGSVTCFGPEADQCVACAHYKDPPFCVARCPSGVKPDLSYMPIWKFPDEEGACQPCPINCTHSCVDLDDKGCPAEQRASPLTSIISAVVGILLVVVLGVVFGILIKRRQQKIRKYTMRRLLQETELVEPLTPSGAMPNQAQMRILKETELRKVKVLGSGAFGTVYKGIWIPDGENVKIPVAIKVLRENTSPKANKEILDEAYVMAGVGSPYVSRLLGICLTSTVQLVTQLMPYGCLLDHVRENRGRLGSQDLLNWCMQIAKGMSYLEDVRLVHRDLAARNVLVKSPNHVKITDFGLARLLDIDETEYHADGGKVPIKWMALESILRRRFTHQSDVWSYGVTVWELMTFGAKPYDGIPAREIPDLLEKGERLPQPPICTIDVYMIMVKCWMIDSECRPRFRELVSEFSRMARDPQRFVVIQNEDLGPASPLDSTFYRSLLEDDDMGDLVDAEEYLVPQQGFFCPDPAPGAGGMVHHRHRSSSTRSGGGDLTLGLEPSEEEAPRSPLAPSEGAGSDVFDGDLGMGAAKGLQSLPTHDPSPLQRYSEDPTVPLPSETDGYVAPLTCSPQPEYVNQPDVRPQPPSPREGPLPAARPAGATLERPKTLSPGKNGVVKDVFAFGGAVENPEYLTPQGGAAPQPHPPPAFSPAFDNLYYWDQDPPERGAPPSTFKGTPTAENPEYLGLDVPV
Counter-ions that a name gives are not always drawn.
State the answer as a number, implicitly in nM.

Prompt: Give the reported IC50 for this compound. C=CC(=O)Nc1cc2c(Nc3ccc(F)c(Cl)c3)ncnc2cc1OCCC1C2CCC1CN(C)C2 (stereo not shown)
Completion: 12

Prompt: Give the reported IC50 for this compound. `C=CC(=O)Nc1cc2c(Nc3ccc(F)c(Cl)c3)ncnc2cc1OCC[C@@H]1[C@H]2CN(C)C[C@@H]12`
Completion: 6.5

Prompt: Give the reported IC50 for this compound. C=CC(=O)Nc1cc2c(Nc3ccc(F)c(Cl)c3)ncnc2cc1OCCC1CC2(CCN(C)CC2)C1 [Compound 19 hydrochloride]
Completion: 3.1

Prompt: Give the reported IC50 for this compound. C=CC(=O)Nc1cc2c(Nc3ccc(F)c(Cl)c3)ncnc2cc1OCC1CCC2(CCN(C)CC2)O1 (stereo not shown)
Completion: 4.3

* * *

Answer each item with its documented pIC50.
biological target: EGFR (Homo sapiens (Human))
Sequence (P00533 25-1210): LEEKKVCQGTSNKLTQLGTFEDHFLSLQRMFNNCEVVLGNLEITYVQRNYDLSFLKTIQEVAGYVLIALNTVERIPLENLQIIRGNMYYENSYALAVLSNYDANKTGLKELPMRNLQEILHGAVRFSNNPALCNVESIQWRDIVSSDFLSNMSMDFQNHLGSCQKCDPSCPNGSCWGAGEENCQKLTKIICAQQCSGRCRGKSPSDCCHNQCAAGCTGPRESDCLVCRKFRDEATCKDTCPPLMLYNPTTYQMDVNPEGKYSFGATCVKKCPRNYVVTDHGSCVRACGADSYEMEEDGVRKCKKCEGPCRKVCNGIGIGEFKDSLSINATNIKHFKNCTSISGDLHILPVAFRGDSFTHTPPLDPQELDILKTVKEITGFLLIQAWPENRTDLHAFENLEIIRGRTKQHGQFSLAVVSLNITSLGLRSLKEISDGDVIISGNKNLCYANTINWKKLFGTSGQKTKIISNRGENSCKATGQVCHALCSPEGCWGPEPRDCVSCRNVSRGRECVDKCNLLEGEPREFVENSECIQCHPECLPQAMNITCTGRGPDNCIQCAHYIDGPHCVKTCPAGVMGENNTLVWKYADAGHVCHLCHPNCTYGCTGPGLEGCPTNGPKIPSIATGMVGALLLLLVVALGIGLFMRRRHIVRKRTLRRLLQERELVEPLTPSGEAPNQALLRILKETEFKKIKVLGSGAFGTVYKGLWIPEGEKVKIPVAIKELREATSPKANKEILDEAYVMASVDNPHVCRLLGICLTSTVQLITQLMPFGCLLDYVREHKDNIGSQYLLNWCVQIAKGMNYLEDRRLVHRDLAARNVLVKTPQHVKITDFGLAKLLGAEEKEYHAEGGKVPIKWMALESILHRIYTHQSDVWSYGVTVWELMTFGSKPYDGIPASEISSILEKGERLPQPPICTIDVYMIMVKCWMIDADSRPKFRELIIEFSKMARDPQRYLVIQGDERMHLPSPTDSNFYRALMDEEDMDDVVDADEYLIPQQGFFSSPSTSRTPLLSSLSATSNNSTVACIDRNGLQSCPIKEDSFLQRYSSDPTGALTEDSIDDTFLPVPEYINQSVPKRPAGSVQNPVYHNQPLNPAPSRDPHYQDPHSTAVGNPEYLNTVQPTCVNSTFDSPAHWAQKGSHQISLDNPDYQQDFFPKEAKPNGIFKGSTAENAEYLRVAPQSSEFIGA
Counter-ions that a name gives are not always drawn.
Scale for pIC50: -log10 of concentration given in mol/L; no unit attached.

Prompt: # return pIC50 for C=CC(=O)Nc1cc2c(Nc3ccc(F)c(Cl)c3)ncnc2cc1OCC1CC2(CCN(C)CC2)C1 [Compound 18] , test system: EGFR (Homo sapiens (Human))
Completion: 9.00

Prompt: # return pIC50 for C=CC(=O)Nc1cc2c(Nc3ccc(F)c(Cl)c3)ncnc2cc1OCCC1CC12CCN(C)CC2 (stereo not shown) [Compound 14] , test system: EGFR (Homo sapiens (Human))
Completion: 9.41

Prompt: # return pIC50 for C=CC(=O)Nc1cc2c(Nc3ccc(F)c(Cl)c3)ncnc2cc1OCCC1C2CCC1CN(C)C2 (stereo not shown) [Compound 11] , test system: EGFR (Homo sapiens (Human))
Completion: 9.10

Prompt: # return pIC50 for C=CC(=O)Nc1cc2c(Nc3ccc(F)c(Cl)c3)ncnc2cc1OCCC1CC2(CCN(C)CC2)C1 [Compound 19 hydrochloride] , test system: EGFR (Homo sapiens (Human))
Completion: 9.25
